Ref: ChEMBL document CHEMBL5034039

experiment: Half life in rat at 1 mg/kg, iv; format: ADME, organism-based; conditions: in vivo
OUTCOME_MEASURE: half-life (min)
Numbers only, in min.

-- ask Fill blank: measured half-life of the molecule c1ccc([C@H]2CN(c3cc(O[C@H]4C[C@@H](n5cccn5)C4)ncn3)CCO2)cc1 is ____.
-- reply 186

====

Field: IC50. Provide a value for each of the compounds that follow.
biological target: Very long chain fatty acid elongase 1 (Homo sapiens, UniProt Q9BW60); test: Inhibition of ELOVL1 (unknown origin)
Sequence (Q9BW60 whole entry): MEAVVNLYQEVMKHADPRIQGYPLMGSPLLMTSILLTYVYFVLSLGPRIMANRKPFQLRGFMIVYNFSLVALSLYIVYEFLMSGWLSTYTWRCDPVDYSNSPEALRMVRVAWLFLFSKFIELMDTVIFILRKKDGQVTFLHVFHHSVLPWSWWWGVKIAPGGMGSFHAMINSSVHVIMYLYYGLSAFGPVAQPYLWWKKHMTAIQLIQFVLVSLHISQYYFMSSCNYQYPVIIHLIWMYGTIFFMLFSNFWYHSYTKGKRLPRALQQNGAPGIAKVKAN
Give bare numbers, in nM.

// known answers, use as guide
[
  {
    "SMILES_STR": "Fc1ccc(CCOc2cc(N3CCCCC3)ncn2)cc1",
    "OBSERVED_VALUE": 220
  },
  {
    "SMILES_STR": "Fc1ccc(CCOc2ccc(-c3cccnc3)cn2)cc1",
    "OBSERVED_VALUE": 21000
  }
]

Field: next compound
-- ask Bench note: what IC50 did Fc1ccc(CCOc2cc(N3CCCCC3)ccn2)cc1 show?
-- reply 860

====

target: Very long chain fatty acid elongase 6 (Homo sapiens); assay: Inhibition of ELOVL6 in HEK293 cells by radiometric enzyme assay
Sequence (Q9H5J4 whole entry): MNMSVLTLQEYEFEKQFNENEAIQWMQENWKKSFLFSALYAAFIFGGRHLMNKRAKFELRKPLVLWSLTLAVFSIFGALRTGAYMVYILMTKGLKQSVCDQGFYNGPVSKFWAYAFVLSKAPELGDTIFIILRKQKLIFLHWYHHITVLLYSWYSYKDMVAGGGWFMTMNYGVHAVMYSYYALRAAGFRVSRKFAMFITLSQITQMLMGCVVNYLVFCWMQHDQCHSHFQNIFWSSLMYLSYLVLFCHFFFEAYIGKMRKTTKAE
OUTCOME_MEASURE: IC50

-- ask Param item = c1ccc([C@H]2CN(c3cc(O[C@H]4C[C@@H](n5cccn5)C4)ncn3)CCO2)cc1 ; retrieve measured IC50.
-- reply > 50 µM

====

system: MDR1; assay: Efflux ratio of permeability in dog MDCK-MDR1 cells; type: ADME, cell-based, Canis lupus familiaris
OUTCOME_MEASURE: efflux ratio
Answers are plain numbers.

-- ask Tell me the measured efflux ratio of c1ccc([C@H]2CN(c3cc(O[C@H]4C[C@@H](n5cccn5)C4)ncn3)CCO2)cc1 , please.
-- reply 1

====

assay: Clearance in rat at 1 mg/kg, iv; type: ADME, organism-based; details: in vivo
OUTCOME_MEASURE: clearance

-- ask // query clearance value for entry c1ccc([C@H]2CN(c3cc(O[C@H]4C[C@@H](n5cccn5)C4)ncn3)CCO2)cc1
-- reply 20 mL/min/kg

====

experiment: Lipophilicity, logD of the compound at pH 7.4; assay type: physicochemical; conditions: buffer
OUTCOME_MEASURE: logD
Give bare numbers.

[
  {
    "COMPOUND": "Fc1ccn([C@H]2C[C@H](c3cc(O[C@H]4C[C@@H](n5cccn5)C4)ncn3)C2)n1",
    "logD": 3.1
  }
]

Give me logD for each of these compounds, listed below.
1. Cc1ccnn1CCCOc1cc(N2CCOC3(COC3)C2)ncn1
2. c1ccc([C@H]2CN(c3cc(O[C@H]4C[C@@H](n5ccnn5)C4)ncn3)CCO2)cc1
3. Cc1ccnn1CCCOc1cc(N2CCOC(C(F)(F)F)C2)ncn1 (stereo not drawn)
4. Fc1ccc(CCOc2cc(N3CCOCC3)ncn2)cc1
5. CN(C)c1cc(OCCc2ccc(F)cc2)ncn1
6. Cc1ccnn1CCOc1cc(N2CCCCC2)ncn1
7. c1ccc([C@H]2CN(c3cc(O[C@H]4C[C@@H](n5cccn5)C4)ncn3)CCO2)cc1
8. Clc1ccn([C@H]2C[C@H](c3cc(O[C@H]4C[C@@H](n5cccn5)C4)ncn3)C2)n1

-- reply
[1.6, 2.9, 2.9, 3.3, 3.6, 2.8, 3.3, 3.5]

====

molecular target: Very long chain fatty acid elongase 1 (Homo sapiens, UniProt Q9BW60); assay: Inhibition of ELOVL1 in HEK293 cells assessed as reduction of C26:0 lipo phosphatidyl choline synthesis; type: cell-based
For each record, write down the corresponding IC50.
Write the quantity with the unit trailing the number.

Below are worked cases with known answers.
[
  {
    "MOLECULE": "Cc1ccnn1CCOc1cc(N2CCCCC2)ncn1",
    "MEASURED_ON": "Very long chain fatty acid elongase 1 (Homo sapiens, UniProt Q9BW60)",
    "IC50": "140 nM"
  },
  {
    "MOLECULE": "Fc1ccn([C@H]2C[C@H](c3cc(O[C@H]4C[C@@H](n5cccn5)C4)ncn3)C2)n1",
    "MEASURED_ON": "Very long chain fatty acid elongase 1 (Homo sapiens, UniProt Q9BW60)",
    "IC50": "0.3 nM"
  }
]

Provide IC50 for all items below, preserving their order.
1. c1ccc([C@H]2CN(c3cc(O[C@H]4C[C@@H](n5ccnn5)C4)ncn3)CCO2)cc1
2. Fc1ccc(CCOc2cc(N3CCCOCC3)ncn2)cc1
3. Fc1ccc(CCOc2cc(N3CCOCC3)ncn2)cc1
4. Cc1ccnn1CCCOc1cc(N2CCCCC2)ncn1
5. Fc1ccc(CCOc2cc(N3CCCCC3)ccn2)cc1

-- reply
1: 9 nM; 2: 3 nM; 3: 12 nM; 4: 7 nM; 5: 440 nM
